// reported growth per item
System: NCI/ADR-RES ovarian
Test: NCI-60 one-dose screen, 48 h (100 = growth as untreated, 0 = no growth, -100 = all killed)
Details: 10 µM unless noted
Method: Growth inhibition of the NCI/ADR-RES human […] tumor cell line is measured as a screen for anti-cancer activity. Cells are grown in 96 well plates and exposed to the test compound for 48 hours. Compounds are tested at a single concentration, which is 10^-5 M for most compounds. The reported endpoint is percent growth (GI% or GIPRCNT), where numbers from 0 - 100% represent growth inhibition, and numbers from -100% - 0 represent cell death. For example, a value of 40 represents 60% growth inhibition. […]
The panel holds about 83,000 compounds, 20% with a hit somewhere; the sample as a whole holds those more often.
measuredQuantity: growth (%)

compound	quantityUnit	reported
O=S(=O)(Oc1ccc(Br)cc1)c1ccc(Cl)cc1	%	96.2
C=C1C(=O)O[C@H]2[C@H]1CC/C(COC(=O)CSCSCC(=O)OC/C1=C/CC[C@@]3(C)O[C@H]3[C@H]3OC(=O)C(=C)[C@@H]3CC1)=C\CC[C@@]1(C)O[C@@H]21	%	62.4
COc1ccc(-c2nc(/C=C3\C(=O)N(C)c4ccccc43)c3ccccn23)cc1	%	77.6
CCN(CC)CCN1C(=O)c2c(c(C)c3c(oc4ccc(O)cc43)c2C)C1=O	%	21.7
CC1=C(C(=O)Nc2nc(-c3ccc(Cl)cc3)cs2)[C@H](c2ccc(O)cc2)NC(=O)N1	%	101
Fc1cccc(-c2ccc3c(c2)C2(CCNCC2)CN3)c1	%	95.5
CC[C@]12C=CCN3CC[C@@]4(c5ccc(OC)cc5N(C)[C@H]4[C@@](O)(C(=O)OC)[C@@H]1OC(=O)CCC[P+](c1ccccc1)(c1ccccc1)c1ccccc1)[C@@H]32	%	100
CC1CCN(C(=S)SCC(=O)NC(=O)c2ccccc2)CC1	%	105
COc1ccc2c(c1)c(/C(O)=C1\COC(=O)C1=O)cn2Cc1ccc(F)cc1	%	107
CNC(=O)c1cc(Oc2cccc3nc(NC(=O)Nc4cc(C(F)(F)F)ccc4Cl)ccc23)ccn1	%	93.8
N=c1c(S(=O)(=O)c2ccccc2)cc2c(=O)n3ccccc3nc2n1CC1CCCO1 (centres undefined)	%	98.7
N#Cc1c(-c2ccccc2)nc(SCc2nnc(-c3ccc(Cl)cc3)o2)[nH]c1=O	%	93.3
CNC1=C([N+](=O)[O-])C(c2ccc(OC)cc2)C(C#N)=C(c2cccs2)O1 (centres undefined)	%	107
CNC(=O)c1ccccc1Nc1nc(Nc2cc(OC)c(OC)c(OC)c2)ncc1Br	%	-10.7
CCN1C(=O)N(CC)C2C1NN=c1s/c(=C\c3cnc(C)n3C)c(=O)n12 (centres undefined)	%	75.4
Cc1cccc[n+]1C1c2ccccc2-c2ccccc21	%	111
COc1ccc(/C=C2\COc3ccc(O)cc3C2=O)cc1	%	98.5
CC/C=C\CCC/C=C1/C(=O)C=C[C@@H]1C/C=C\CCCC(=O)OC	%	25.9
O=C(O)c1cn(C2CC2)c2cc(N3CCN(C(=O)Nc4nc(-c5ccc(Br)cc5)cs4)CC3)c(F)cc2c1=O	%	69.4

###

test system: MALME-3M melanoma; test: NCI-60 one-dose screen, 48 h (100 = growth as untreated, 0 = no growth, -100 = all killed); details: 10 µM unless noted
The panel holds about 83,000 compounds, 20% with a hit somewhere; the sample as a whole holds those more often.
Label Fulfilled when growth is strictly below 70%; otherwise label Not fulfilled.

sampleSmiles	cat
Nc1[nH]n2cc(-c3ccc(F)cc3)nc2c1N=Nc1ccc(S(N)(=O)=O)cc1	Fulfilled
Cc1ccc(S(=O)(=O)c2nc(-c3ccccc3)oc2Sc2nc3ccccc3s2)cc1	Fulfilled
O=S(=O)(NCCCNc1nccc(-c2c(-c3cccc(F)c3)nc3occn23)n1)c1ccc(F)cc1	Fulfilled
CCN(CC)CCCN1C(=O)c2c(c(C)c3c(oc4ccc(OC)cc43)c2C)C1=O	Not fulfilled
COc1cc(-c2nc3c(ncc4ccc(=O)n(-c5ccccc5)c43)s2)cc(OC)c1OC	Fulfilled
CN1CCN(CC(=O)Nc2ccc3ncnc(Nc4ccc(Oc5cccc(C(F)(F)F)c5)c(Cl)c4)c3c2)CC1	Fulfilled
Cc1ccc(C(=O)c2ccc(CC(=O)N=Nc3c(O)[nH]c4ccc(Br)cc34)n2C)cc1	Not fulfilled
COc1ccc(C(=O)N2c3ccccc3Sc3ccccc32)c(C(F)(F)F)c1	Fulfilled
c1ccc(CCNc2c3ccccc3nc3ccccc23)cc1	Fulfilled
C=CC(=O)Nc1ccc(Oc2nccc(Nc3nnc(-c4ccc(C)cc4)s3)n2)cc1	Fulfilled
